System: RERF-LC-KJ
PROTOCOL NOTES: relative viability (nuclei count vs DMSO), 5 days (fraction); higher = more cells survive
CONDITION SUMMARY: first compound 0.0002 µM
MEASURED ENDPOINT: relative viability
Please respond with just the number, no unit label.

# annotated cases, reported relative viability shown
INSERT INTO assay_data (compound, measured_endpoint, quantitative_readout) VALUES
  ('CC(=O)O[C@@]12CO[C@@H]1C[C@H](O)[C@@]1(C)C(=O)[C@H](O)C3=C(C)[C@@H](OC(=O)[C@H](O)[C@@H](NC(=O)OC(C)(C)C)c4ccccc4)C[C@@](O)([C@@H](OC(=O)c4ccccc4)[C@H]21)C3(C)C [Docetaxel] + CC(C)C[C@H](NC(=O)[C@H](Cc1ccccc1)NC(=O)c1cnccn1)B(O)O [Bortezomib] (partner 0.002 µM)', 'relative viability', 0.967),
  ('CC(=O)O[C@@]12CO[C@@H]1C[C@H](O)[C@@]1(C)C(=O)[C@H](O)C3=C(C)[C@@H](OC(=O)[C@H](O)[C@@H](NC(=O)OC(C)(C)C)c4ccccc4)C[C@@](O)([C@@H](OC(=O)c4ccccc4)[C@H]21)C3(C)C [Docetaxel] + CC1(C)CCC(c2ccc(Cl)cc2)=C(CN2CCN(c3ccc(C(=O)NS(=O)(=O)c4ccc(N[C@H](CCN5CCOCC5)CSc5ccccc5)c(S(=O)(=O)C(F)(F)F)c4)cc3)CC2)C1 [Navitoclax] (partner 0.5 µM)', 'relative viability', 0.754);

Consider the additional compound presented here.
Request the reported relative viability associated with CC(=O)O[C@@]12CO[C@@H]1C[C@H](O)[C@@]1(C)C(=O)[C@H](O)C3=C(C)[C@@H](OC(=O)[C@H](O)[C@@H](NC(=O)OC(C)(C)C)c4ccccc4)C[C@@](O)([C@@H](OC(=O)c4ccccc4)[C@H]21)C3(C)C [Docetaxel] + CC(=O)Nc1cccc(-n2c(=O)n(C3CC3)c(=O)c3c(Nc4ccc(I)cc4F)n(C)c(=O)c(C)c32)c1 [Trametinib] (partner 0.02 µM)
0.767

###

Below is a list of entries, each paired with its recorded relative viability value.
Tested on: NCI-H3122
PROTOCOL NOTES: relative viability (nuclei count vs DMSO), 5 days (fraction); higher = more cells survive
CONDITION SUMMARY: first compound 500 µM
The answer should be a number; do not append a unit.

The cases that follow already have their relative viability on record.
INSERT INTO assay_data (molecule, measured_endpoint, quantitative_readout) VALUES
  ('O=C(O)CCCCC(CCSCc1ccccc1)SCc1ccccc1 (stereo not drawn) [CPI-613] + CCNC(=O)c1noc(-c2cc(C(C)C)c(O)cc2O)c1-c1ccc(CN2CCOCC2)cc1 [Luminespib] (partner 0.01 µM)', 'relative viability', 0.0712),
  ('O=C(O)CCCCC(CCSCc1ccccc1)SCc1ccccc1 (stereo not drawn) [CPI-613] + CC(=O)c1c(C)c2cnc(Nc3ccc(N4CCNCC4)cn3)nc2n(C2CCCC2)c1=O [Palbociclib] (partner 0.5 µM)', 'relative viability', 0.145);

// below: relative viability requested for another molecule
Return relative viability measured with NCI-H3122 given this molecule: O=C(O)CCCCC(CCSCc1ccccc1)SCc1ccccc1 (stereo not drawn) [CPI-613] + Nc1nc2[nH]cc(CCc3ccc(C(=O)N[C@@H](CCC(=O)O)C(=O)O)cc3)c2c(=O)[nH]1 [Pemetrexed] (partner 0.2 µM)
0.153

###

Test system: NCI-H1793
PROTOCOL NOTES: relative viability (nuclei count vs DMSO), 5 days (fraction); higher = more cells survive
CONDITION SUMMARY: first compound 0.5 µM
MEASURED ENDPOINT: relative viability
Give a plain numeric answer without units written out.

INSERT INTO results (compound, experimental_target, measured_endpoint, quantitative_readout) VALUES
  ('COc1cc2nccc(Oc3ccc(NC(=O)Nc4cc(C)on4)c(Cl)c3)c2cc1OC [Tivozanib] + CC1(C)CCC(c2ccc(Cl)cc2)=C(CN2CCN(c3ccc(C(=O)NS(=O)(=O)c4ccc(N[C@H](CCN5CCOCC5)CSc5ccccc5)c(S(=O)(=O)C(F)(F)F)c4)cc3)CC2)C1 [Navitoclax] (partner 0.5 µM)', 'NCI-H1793', 'relative viability', 0.438),
  ('Nc1ccn([C@@H]2O[C@H](CO)[C@@H](O)[C@@H]2O)c(=O)n1 [Cytarabine] + Nc1nc2[nH]cc(CCc3ccc(C(=O)N[C@@H](CCC(=O)O)C(=O)O)cc3)c2c(=O)[nH]1 [Pemetrexed] (partner 0.2 µM)', 'NCI-H1793', 'relative viability', 0.206);

Now take the following compound into account.
// returns reported relative viability for input COc1cc2nccc(Oc3ccc(NC(=O)Nc4cc(C)on4)c(Cl)c3)c2cc1OC [Tivozanib] + Nc1ncn([C@H]2C[C@H](O)[C@@H](CO)O2)c(=O)n1 [Decitabine] (partner 2 µM)
0.481

###

Test system: PC-3 [JPC-3]
PROTOCOL NOTES: relative viability (nuclei count vs DMSO), 5 days (fraction); higher = more cells survive
CONDITION SUMMARY: first compound 4 µM
Measured relative viability, listed per entry.
Reply: number alone, nothing else.

Examples from the recorded data:
INSERT INTO measurements (molecule, experimental_target, measured_endpoint, quantitative_readout) VALUES
  ('Cc1sc2c(c1C)C(c1ccc(Cl)cc1)=N[C@@H](CC(=O)OC(C)(C)C)c1nnc(C)n1-2 [JQ1] + Cc1nc(Nc2ncc(C(=O)Nc3c(C)cccc3Cl)s2)cc(N2CCN(CCO)CC2)n1 [Dasatinib] (partner 0.075 µM)', 'PC-3 [JPC-3]', 'relative viability', 0.578),
  ('Cc1sc2c(c1C)C(c1ccc(Cl)cc1)=N[C@@H](CC(=O)OC(C)(C)C)c1nnc(C)n1-2 [JQ1] + C[C@@H](Oc1cc(-c2cnn(C3CCNCC3)c2)cnc1N)c1c(Cl)ccc(F)c1Cl [Crizotinib] (partner 1 µM)', 'PC-3 [JPC-3]', 'relative viability', 0.512),
  ('Cc1sc2c(c1C)C(c1ccc(Cl)cc1)=N[C@@H](CC(=O)OC(C)(C)C)c1nnc(C)n1-2 [JQ1] + CC(=O)c1c(C)c2cnc(Nc3ccc(N4CCNCC4)cn3)nc2n(C2CCCC2)c1=O [Palbociclib] (partner 0.5 µM)', 'PC-3 [JPC-3]', 'relative viability', 0.438);

Need relative viability of Cc1sc2c(c1C)C(c1ccc(Cl)cc1)=N[C@@H](CC(=O)OC(C)(C)C)c1nnc(C)n1-2 [JQ1] + CC(=O)Nc1cccc(-n2c(=O)n(C3CC3)c(=O)c3c(Nc4ccc(I)cc4F)n(C)c(=O)c(C)c32)c1 [Trametinib] (partner 0.02 µM) , thanks.
0.461

###

Test system: NCI-H1975
PROTOCOL NOTES: relative viability (nuclei count vs DMSO), 5 days (fraction); higher = more cells survive
CONDITION SUMMARY: first compound 2.53 µM
Readings of relative viability for the listed compounds
Number, no unit, nothing else.

Query: relative viability; subject: O=c1[nH]c2ccccc2n1C1CCN(CCCC(c2ccc(F)cc2)c2ccc(F)cc2)CC1 [Pimozide] + CC1(C)CCC(c2ccc(Cl)cc2)=C(CN2CCN(c3ccc(C(=O)NS(=O)(=O)c4ccc(N[C@H](CCN5CCOCC5)CSc5ccccc5)c(S(=O)(=O)C(F)(F)F)c4)cc3)CC2)C1 [Navitoclax] (partner 0.5 µM)
1.16

What measured relative viability goes with O=c1[nH]c2ccccc2n1C1CCN(CCCC(c2ccc(F)cc2)c2ccc(F)cc2)CC1 [Pimozide] + N=C(N)NC(=N)NCCc1ccccc1 [Phenformin] (partner 250 µM) ?
0.454

# input compound: Cc1cnc(-c2cnc(NCCNc3ccc(C#N)cn3)nc2-c2ccc(Cl)cc2Cl)[nH]1 + Cc1cc(Nc2cc(N3CCN(C)CC3)nc(Sc3ccc(NC(=O)C4CC4)cc3)n2)n[nH]1 [Tozasertib] (partner 0.1 µM) ; wanted: its relative viability
0.132

# lookup: relative viability of O=c1[nH]c2ccccc2n1C1CCN(CCCC(c2ccc(F)cc2)c2ccc(F)cc2)CC1 [Pimozide] + CC(C)C[C@H](NC(=O)[C@H](Cc1ccccc1)NC(=O)c1cnccn1)B(O)O [Bortezomib] (partner 0.002 µM)
0.337

Which measured relative viability value corresponds to Cc1cnc(-c2cnc(NCCNc3ccc(C#N)cn3)nc2-c2ccc(Cl)cc2Cl)[nH]1 + CC(=O)Nc1cccc(-n2c(=O)n(C3CC3)c(=O)c3c(Nc4ccc(I)cc4F)n(C)c(=O)c(C)c32)c1 [Trametinib] (partner 0.02 µM) ?
0.339

###

System: NCI-H1355
PROTOCOL NOTES: relative viability (nuclei count vs DMSO), 5 days (fraction); higher = more cells survive
CONDITION SUMMARY: first compound 0.253 µM
MEASURED ENDPOINT: relative viability
Response field accepts a number only; no unit should be typed.

Examples from the recorded data:
INSERT INTO results (compound, experimental_target, quantitative_readout) VALUES
  ('Cc1cnc(-c2cnc(NCCNc3ccc(C#N)cn3)nc2-c2ccc(Cl)cc2Cl)[nH]1 + Cc1nc(NC(=O)N2CCC[C@H]2C(N)=O)sc1-c1ccnc(C(C)(C)C(F)(F)F)c1 [Alpelisib] (partner 2 µM)', 'NCI-H1355', 0.752),
  ('O=c1[nH]c2ccccc2n1C1CCN(CCCC(c2ccc(F)cc2)c2ccc(F)cc2)CC1 [Pimozide] + O=C(CCCCCCC(=O)Nc1ccccc1)NO [Vorinostat] (partner 1 µM)', 'NCI-H1355', 0.597),
  ('Cc1cnc(-c2cnc(NCCNc3ccc(C#N)cn3)nc2-c2ccc(Cl)cc2Cl)[nH]1 + Cc1cc(Nc2cc(N3CCN(C)CC3)nc(Sc3ccc(NC(=O)C4CC4)cc3)n2)n[nH]1 [Tozasertib] (partner 0.1 µM)', 'NCI-H1355', 0.474);

Item: O=c1[nH]c2ccccc2n1C1CCN(CCCC(c2ccc(F)cc2)c2ccc(F)cc2)CC1 [Pimozide] + N=C(N)NC(=N)NCCc1ccccc1 [Phenformin] (partner 250 µM) Test system: NCI-H1355 Read-out: relative viability Value: ?
0.435

Lab request: please report relative viability under test system NCI-H1355 for O=c1[nH]c2ccccc2n1C1CCN(CCCC(c2ccc(F)cc2)c2ccc(F)cc2)CC1 [Pimozide] + C[C@]1(O)C[C@@H](c2nc(-c3ccc4ccc(-c5ccccc5)nc4c3)c3c(N)nccn32)C1 [Linsitinib] (partner 1 µM)
0.804
